Known DC50 of a selection of molecules
Biological target: PTPN2 (Homo sapiens)
Construct: expressed in transfected cells; host or cells: 293T (293T.109 HiBiT-PTPN2 line; parental 293T WT from ATCC)
Sequence (P17706 whole entry, species assumed): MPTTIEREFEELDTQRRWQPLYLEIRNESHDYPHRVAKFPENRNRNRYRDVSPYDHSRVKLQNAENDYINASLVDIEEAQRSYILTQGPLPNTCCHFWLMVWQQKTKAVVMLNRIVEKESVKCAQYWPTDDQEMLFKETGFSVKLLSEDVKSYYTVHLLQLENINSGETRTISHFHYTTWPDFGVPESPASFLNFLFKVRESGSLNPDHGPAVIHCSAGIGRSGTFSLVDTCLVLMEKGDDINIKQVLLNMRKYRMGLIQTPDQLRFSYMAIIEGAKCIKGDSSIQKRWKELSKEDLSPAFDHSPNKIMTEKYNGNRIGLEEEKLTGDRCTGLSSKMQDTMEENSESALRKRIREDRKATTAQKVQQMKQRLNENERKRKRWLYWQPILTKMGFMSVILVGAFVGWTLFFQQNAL
Assay: HiBiT-Degradation 293T.109 PTPN2 (Nano-Glo HiBiT Lytic Assay)
Format: cell-based
Conditions: 293T.109 (HiBiT-PTPN2) cells, 24.0 hours

>>> result("O=C1CCC(N2C(=O)c3ccc(NCc4cnn(C5CN(C(=O)Nc6ccc7c(F)c(N8CC(=O)NS8(=O)=O)c(O)cc7c6)C5)c4)cc3C2=O)C(=O)N1 (stereo not drawn)")
"200 to 1000 nM"
>>> result("Cn1c(=O)n(C2CCC(=O)NC2=O)c2ccc(C3CCN(C(=O)c4ccc5c(F)c(N6CC(=O)NS6(=O)=O)c(O)cc5c4)CC3)cc21 (stereo not drawn)")
"≥ 1000 nM"
>>> result("O=C(CCCCCn1cc(CNc2cccc3c2C(=O)N(C2CCC(=O)NC2=O)C3=O)nn1)NCCOc1ccc2cc(O)c(N3CC(=O)NS3(=O)=O)c(F)c2c1 (stereo not drawn)")
"≥ 1000 nM"

Request - read-out DC50 | tested on PTPN2 (Homo sapiens) | molecule CN(c1ccc(C2CCN(CC(=O)NCCOc3ccc4cc(O)c(N5CC(=O)NS5(=O)=O)c(F)c4c3)CC2)cc1)C1CCC(=O)NC1=O (stereo not drawn)
200 to 1000 nM

// fetch PTPN2 (Homo sapiens) DC50 for Cn1c(=O)n(C2CCC(=O)NC2=O)c2ccc(CCC(=O)NCCOc3ccc4cc(O)c(N5CC(=O)NS5(=O)=O)c(F)c4c3)cc21 (stereo not drawn)
≥ 1000 nM

Write down the reported DC50 of Cn1c(=O)n(C2CCC(=O)NC2=O)c2ccc(C3CCN(CC(=O)N4CC=C(c5ccc6cc(O)c(N7CC(=O)NS7(=O)=O)c(F)c6c5)C4)CC3)cc21 (stereo not drawn) , test system: PTPN2 (Homo sapiens).
50 to 200 nM
